Test system: HeLa
experiment: cell viability (CellTiter-Glo) relative to median of lowest-dilution wells of all drugs (fraction); higher = more viable cells
run-parameters: drug concentration (unit not stated): 10; genotype: control (DDX11 wild type)
Lab note: anything with cell viability below 1 is marked yes (1); values at 1 or higher are marked no (0).

Q: Is cell viability strictly under 1 for the entry O=c1cc(N2CCOCC2)oc2c(-c3cccc4c3sc3ccccc34)cccc12 ?
Result: yes (1)

Q: Quick check: cell viability of C[C@@H]1COCCN1c1cc(C2([S@](C)(=N)=O)CC2)nc(-c2cc[nH]c3nccc2-3)n1 under 1?
Result: yes (1)

Q: Strictly below 1 in cell viability? N.N.[Cl][Pt][Cl] [Cisplatin]
Result: yes (1)

Q: Find out if reported cell viability for Cc1sc2c(c1C)C(c1ccc(Cl)cc1)=N[C@@H](CC(=O)OC(C)(C)C)c1nnc(C)n1-2 [(+)-JQ-1] is less than 1
Result: yes (1)

Q: Regarding O=c1cc(-c2cccc3c2Sc2ccccc2S3)oc(N2CCOCC2)c1 , kindly confirm whether its cell viability is beneath 1.
Result: yes (1)

Q: Here's an entry: Nc1ncn([C@H]2C[C@H](O)[C@@H](CO)O2)c(=O)n1 . Is its cell viability below 1?
Result: no (0)

Q: In plain terms, does Nc1nc2[nH]cnc2c(=S)[nH]1 come in under 1 for cell viability?
Result: yes (1)

Q: Just wondering, is cell viability of CCn1nc(C2CCN(C(=O)CCO)CC2)nc1-c1cnc(N)c(-c2nnc(C(C)(C)C)o2)n1 below 1?
Result: no (0)

Q: Threshold test, cell viability < 1: CCN(CCO)CCCOc1ccc2c(Nc3cc(CC(=O)Nc4cccc(F)c4)[nH]n3)ncnc2c1
Result: yes (1)

----------
Test system: HeLa
experiment: cell viability (CellTiter-Glo) relative to median of lowest-dilution wells of all drugs (fraction); higher = more viable cells
run-parameters: drug concentration (unit not stated): 0.37; genotype: DDX11 knockout
Structures can show the parent of a compound that is named as a salt.
metric-name: cell viability

Q: Please report cell viability with HeLa for item N.N.[Cl][Pt][Cl] [Cisplatin] .
Result: 0.233

Q: Tell me cell viability of CCCCCCNC(=O)n1cc(F)c(=O)[nH]c1=O when tested on HeLa.
Result: 1.09

Q: Provide HeLa cell viability reading for COc1cccc2c1C(=O)c1c(O)c3c(c(O)c1C2=O)C[C@@](O)(C(=O)CO)C[C@@H]3O[C@H]1C[C@H](N)[C@@H](O)[C@H](C)O1 [Epirubicin Hydrochloride] .
Result: 0.304

Q: Provide cell viability, recorded with HeLa, of CC[C@]1(O)C[C@@H]2CN(CCc3c([nH]c4ccccc34)[C@@](C(=O)OC)(c3cc4c(cc3OC)N(C)[C@H]3[C@@](O)(C(=O)OC)[C@H](OC(C)=O)[C@]5(CC)C=CCN6CC[C@]43[C@@H]65)C2)C1
Result: 0.392

Q: Give reported cell viability for Nc1ncn([C@H]2C[C@H](O)[C@@H](CO)O2)c(=O)n1 (HeLa)
Result: 1.03

Q: Enter recorded cell viability with HeLa for NC(=O)Nc1cc(-c2cccc(F)c2)sc1C(=O)N[C@H]1CCCNC1 here.
Result: 0.819

Q: Name the recorded cell viability of Nc1ccn([C@@H]2O[C@H](CO)[C@@H](O)[C@@H]2O)c(=O)n1 , assay system HeLa.
Result: 0.728

----------
System: HeLa
experiment: cell viability (CellTiter-Glo) relative to median of lowest-dilution wells of all drugs (fraction); higher = more viable cells
run-parameters: drug concentration (unit not stated): 0.12; genotype: control (DDX11 wild type)
Where a name gives a salt, the structure may show the parent alone.
So basically, the class depends on measured cell viability, and the ranges are bottom: < 0.9; middle: ≥ 0.9 and < 1; top: ≥ 1

Q: Returns: class label. Input: CC(=O)O[C@H]1C(=O)[C@@]2(C)[C@H]([C@H](OC(=O)c3ccccc3)[C@]3(O)C[C@H](OC(=O)[C@H](O)[C@@H](NC(=O)c4ccccc4)c4ccccc4)C(C)=C1C3(C)C)[C@]1(OC(C)=O)CO[C@@H]1C[C@@H]2O
Result: bottom

Q: Please report the category associated with CO[C@@H](C(=O)N1Cc2[nH]nc(NC(=O)c3ccc(N4CCN(C)CC4)cc3)c2C1)c1ccccc1 , nothing else.
Result: middle

Q: Entry CCn1nc(C2CCN(C(=O)CCO)CC2)nc1-c1cnc(N)c(-c2nnc(C(C)(C)C)o2)n1 belongs to which category?
Result: top

Q: Which band does CC[C@@]1(O)C(=O)OCc2c1cc1n(c2=O)Cc2cc3c(CN(C)C)c(O)ccc3nc2-1 [Topotecan HCl] fall in?
Result: bottom

Q: For CN(Cc1cnc2nc(N)nc(N)c2n1)c1ccc(C(=O)N[C@@H](CCC(=O)O)C(=O)O)cc1 [Abitrexate (Methotrexate)] , which cell viability bin applies?
Result: bottom

Q: For NC(=O)Nc1cc(-c2cccc(F)c2)sc1C(=O)N[C@H]1CCCNC1 , which cell viability bin applies?
Result: middle

Q: Form field 'band' for C[C@@]1(CO)[C@H](O)CC[C@@]2(C)[C@H]1CC[C@H]1C[C@@H]3C[C@@]12CC[C@]3(O)CO
Result: top

Q: GET /class?item= Cn1cnc2c(F)c(Nc3ccc(Br)cc3Cl)c(C(=O)NOCCO)cc21
Result: middle

----------
I'd appreciate it if you could supply cell viability values for the items below.
Test system: HeLa
experiment: cell viability (CellTiter-Glo) relative to median of lowest-dilution wells of all drugs (fraction); higher = more viable cells
run-parameters: drug concentration (unit not stated): 10; genotype: control (DDX11 wild type)
Lab note: record just the number, no unit beside it.

Q: Please indicate cell viability recorded for COc1cc([C@@H]2c3cc4c(cc3[C@@H](O[C@@H]3O[C@@H]5CO[C@@H](C)O[C@H]5[C@H](O)[C@H]3O)[C@H]3COC(=O)[C@H]23)OCO4)cc(OC)c1O [Etoposide (VP-16)]
Result: 0.0423

Q: Please report cell viability for the following compound: CO[C@@H](C(=O)N1Cc2[nH]nc(NC(=O)c3ccc(N4CCN(C)CC4)cc3)c2C1)c1ccccc1
Result: 0.58

Q: Look up cell viability of C[C@@H](Nc1cc(F)cc(F)c1)c1cc(C(=O)N(C)C)cc2c(=O)cc(N3CCOCC3)oc12 and report it.
Result: 0.908

Q: Return cell viability (reported value) for this compound: C[C@@]1(CO)[C@H](O)CC[C@@]2(C)[C@H]1CC[C@H]1C[C@@H]3C[C@@]12CC[C@]3(O)CO
Result: 0.23

Q: Using the record for O=C(O)C1(C(=O)O)CCC1.[NH2-].[NH2-].[Pt+2] , state its measured cell viability.
Result: 0.331

----------
Test system: HeLa
experiment: cell viability (CellTiter-Glo) relative to median of lowest-dilution wells of all drugs (fraction); higher = more viable cells
run-parameters: drug concentration (unit not stated): 0.37; genotype: DDX11 knockout
Counter-ions that a name gives are not always drawn.
Provide the recorded cell viability for the entries that follow.
Provide a numeric answer; units are not to be included.

Q: Return value of cell viability for input Nc1ccn([C@@H]2O[C@H](CO)[C@@H](O)C2(F)F)c(=O)n1 [Gemcitabine HCl (Gemzar)] , no commentary.
Result: 0.0439

Q: Quickly give me recorded cell viability for CCS(=O)(=O)Nc1ccc2c(c1)/C(=C(/Nc1ccc(CN3CCCCC3)cc1)c1ccccc1)C(=O)N2 [Hesperadin]
Result: 0.79

Q: Note cell viability for the compound shown: CNC(=O)c1cccc(-c2ccc3c(N4CCOC[C@@H]4C)nc(N4CCOC[C@@H]4C)nc3n2)c1 [Vistusertib (AZD2014)]
Result: 0.668

Q: Give the reported cell viability for this compound. COc1cc(Nc2ncc3c(n2)-c2ccc(Cl)cc2C(c2c(F)cccc2OC)=NC3)ccc1C(=O)O [Alisertib]
Result: 0.7

----------
System: HeLa
experiment: cell viability (CellTiter-Glo) relative to median of lowest-dilution wells of all drugs (fraction); higher = more viable cells
run-parameters: drug concentration (unit not stated): 1.11; genotype: control (DDX11 wild type)
Values of cell viability strictly less than 0.9 map to true (1), and values of at least 0.9 map to false (0).

Q: Quick check: cell viability of CC(=O)c1c(C)c2cnc(Nc3ccc(N4CCNCC4)cn3)nc2n(C2CCCC2)c1=O [Palbociclib] under 0.9?
Result: false (0)

Q: Strictly below 0.9 in cell viability? O=c1[nH]c(=O)n(C2CCCO2)cc1F (stereo not drawn) [Ftorafur (Tegafur)]
Result: false (0)

Q: Given the entry CC1(C)CCC(c2ccc(Cl)cc2)=C(CN2CCN(c3ccc(C(=O)NS(=O)(=O)c4ccc(N[C@H](CCN5CCOCC5)CSc5ccccc5)c(S(=O)(=O)C(F)(F)F)c4)cc3)CC2)C1 [ABT-263 (Navitoclax)] , would its reported cell viability be below 0.9?
Result: false (0)

Q: hey, is cell viability for Nc1nc2[nH]cc(CCc3ccc(C(=O)N[C@@H](CCC(=O)O)C(=O)O)cc3)c2c(=O)[nH]1 [Pemetrexed] lower than 0.9 or not?
Result: true (1)

Q: Record CO[C@@H](C(=O)N1Cc2[nH]nc(NC(=O)c3ccc(N4CCN(C)CC4)cc3)c2C1)c1ccccc1 : is its cell viability strictly below 0.9?
Result: true (1)
